- System: SF-295
- assay-protocol: NCI tumour cell line growth inhibition, 48 h
The source made the active and inactive calls. Cut-off read from the data, not from the text of the source: active = GI50 up to about 1.1 µM and inactive = higher.
Please state which outcome applies, choosing from active, inactive

Example cases with answers are listed next.
Cn1cnc2c(sc3nc4ccccc4n32)c1=N = inactive
COc1ccccc1/C=C(\C#N)c1ccccc1 = inactive

## Task Lab log entry: CC(=O)c1cc2c(Br)cccc2oc1=O — outcome as called in the assay?
## Result inactive

## Task Lab log entry: CN(C)C=O.O=C(Nc1nnn[nH]1)c1nc(O)cc(-c2ccccc2)n1 — outcome as called in the assay?
## Result inactive

## Task Lab log entry: COc1cccc(N2C(=O)C3c4[nH]c5ccccc5c4C4CCCC4C3C2=O)c1 (stereo not given) — outcome as called in the assay?
## Result inactive

## Task Lab log entry: CNc1nnnn1C1OC(CO)C(O)C1O (stereo not given) — outcome as called in the assay?
## Result inactive

## Task Lab log entry: O=C1c2ccccc2-c2cccc3ccc(Cc4ccccc4)c1c23 — outcome as called in the assay?
## Result inactive

## Task Lab log entry: O=c1cc2ccccc2nn1-c1ccccc1Cl — outcome as called in the assay?
## Result inactive

## Task Lab log entry: C[C@@H]1CC[C@H]2[C@H]1[C@H]1[C@@H](CC[C@]2(C)N=C=S)C1(C)C — outcome as called in the assay?
## Result inactive

## Task Lab log entry: C[C@@H]1CC[C@@]2(C)[C@H](C)/C(=C\COC(=O)/C=C/c3ccc(O)c(O)c3)CC[C@@]12C [NAVICULYL CAFFEATE] — outcome as called in the assay?
## Result inactive

## Task Lab log entry: COC(=O)/C=C\C(C#N)(C#N)/N=C/c1ccc(Br)cc1 — outcome as called in the assay?
## Result inactive

## Task Lab log entry: CCCCN(CCCC)CC(=O)c1ccc2cc(Cl)c3ccccc3c2c1 — outcome as called in the assay?
## Result inactive

## Task Lab log entry: Cc1ccc(NC(=O)CC2C(=O)Nc3ccccc3[S+]2[O-])c(C)c1 (stereo not given) — outcome as called in the assay?
## Result inactive

* * *

- Tested on: EKVX
- assay-protocol: NCI tumour cell line growth inhibition, 48 h
Calls of active or inactive are those of the source. No stated cut-off is given here; in the data, active = GI50 up to about 1.1 µM and inactive = higher.
Overview of recorded GI50 for various compounds

C=C(C(=O)OC)[C@H]1CC/C(C)=C/CC/C(C)=C/CC[C@@]2(C)O[C@@H]2C1 = 18.7 µM (inactive)
CCN1CCC(O)(/C=C/c2ccc(OC)cc2)C(C(=O)/C=C/c2ccc(OC)cc2)C1 (stereo not given) = 13.6 µM (inactive)

Form field GI50, entry CC(=O)N1c2ccccc2[C@H]2CCc3c([nH]c4ccccc34)[C@H]21 : 14.5 µM (inactive)

Form field GI50, entry CC(=O)OCC1C(=O)OCC1C(=O)N1Cc2cc3ccccc3nc2C1 (stereo not given) : 8.05 µM (inactive)

* * *

- System: KM12
- assay-protocol: NCI tumour cell line growth inhibition, 48 h
Active and inactive are the calls of the source. Rule as the data show it: active = GI50 up to about 1.1 µM and inactive = higher.
Please state which outcome applies, choosing from active, inactive

Example cases with answers are listed next.
CC1=C/C(=C(/c2ccc(O)c(C)c2)c2ccccc2C(=O)O)C=CC1=O = inactive
CC(C)(C)c1cc2c(OC/C=C/c3ccccc3)c(c1)Cc1cc(C(C#N)(OC/C=C/c3ccccc3)OC/C=C/c3ccccc3)cc(c1OC/C=C\c1ccccc1)Cc1cc(C(C)(C)C)cc(c1OC/C=C/c1ccccc1)Cc1cc(C(C#N)(OC/C=C\c3ccccc3)OC/C=C/c3ccccc3)cc(c1OC/C=C\c1ccccc1)C2 (centres undefined) = inactive
COC(=O)c1cc2c(c(C(=O)OC)c1O)C(=O)C=CC2=O = inactive
Nc1nc(-[n+]2ccc(-c3ccncc3)cc2)nc(Cl)c1Cl = inactive
COc1cc(C2c3cc4c(cc3[C@@H](OCCN)[C@H]3COC(=O)C23)OCO4)cc(OC)c1O (some centres undefined) = active
O=C(O)c1cc2ccccc2c(/N=N/c2c([N+](=O)[O-])cc([N+](=O)[O-])cc2S(=O)(=O)O)c1O = inactive
Cc1ccc(C(=O)/C=C/c2cccc([N+](=O)[O-])c2)cc1 = inactive
COc1cc(/C=C2\CCC(C)/C(=C\c3cc(OC)c(OC)c(OC)c3)C2=O)cc(OC)c1OC (centres undefined) = inactive

Consider the record given below.
## Task Lab log entry: COC(=O)C(CC(C)C)NC(=O)C(NC(=O)c1ccc(-c2ccc(Cl)cc2Cl)o1)C(C)C (centres undefined) — outcome as called in the assay?
## Result inactive

* * *

Overview of recorded GI50 for various molecules
- System: T47D
- assay-protocol: NCI tumour cell line growth inhibition, 48 h
Activity calls are given as the source filed them. Rule as the data show it: active = GI50 up to about 1.1 µM and inactive = higher.

Look over these answered cases.
CC1=CCC(=O)[C@]2(C)C(CC(=O)O)[C@]3(C)C4=C(C)C(c5ccoc5)C[C@@H]4O[C@@H]3[C@H](O)[C@@H]12 (stereo partly specified) = > 100 µM (inactive)
N#CCN1c2ccccc2CCC1Cl (stereo unspecified) = > 10 µM (inactive)
O=C(CN1c2ccccc2Sc2ccccc21)N1CCNCC1 = 71.9 µM (inactive)
Cc1ccc2[nH]c(=N/c3ccccc3C)/c(=N\c3ccccc3C)[nH]c2c1 = 19.3 µM (inactive)
CC(CCOc1ccc2ccc(=O)oc2c1)C1=CC(=O)C(C)(C)O1 (stereo unspecified) = 2.02 µM (inactive)
COc1cccc(NCC(=O)Nn2c(-c3ccccc3)nc3ccccc3c2=O)c1 = > 100 µM (inactive)
CCOC(=O)c1ccc(-c2onc(C)c2Br)[nH]1 = 30 µM (inactive)
Cn1cnc2c(sc3nc4ccccc4n32)c1=N = > 100 µM (inactive)

Form field GI50, entry CCOC(=O)/C(=C\NC(N)=S)C(=O)c1ccccc1 : > 100 µM (inactive)

Form field GI50, entry O=c1cc(/N=N\c2ccc(Cl)cc2)[nH]c(=O)[nH]1 : 3.18 µM (inactive)

Form field GI50, entry CC1=NN(c2ccc(C)cc2)C2(C1)SCC(=O)N2c1nc2ccccc2s1 (stereo unspecified) : 11.8 µM (inactive)

* * *

- Tested on: HOP-92
- assay-protocol: NCI tumour cell line growth inhibition, 48 h
Calls of active or inactive are those of the source. No stated cut-off is given here; in the data, active = GI50 up to about 1.1 µM and inactive = higher.
Please state which outcome applies, choosing from label 1 for active, label 0 for inactive

CC[S+](C)c1ccc(-c2c3nc(c(-c4ccc([S+](C)CC)cc4)c4ccc([nH]4)c(-c4ccc([S+](C)CC)cc4)c4nc(c(-c5ccc([S+](C)CC)cc5)c5ccc2[nH]5)C=C4)C=C3)cc1.[O-][Cl+3]([O-])([O-])[O-].[O-][Cl+3]([O-])([O-])[O-].[O-][Cl+3]([O-])([O-])[O-].[O-][Cl+3]([O-])([O-])[O-] (configuration not stated) = label 1
COC(=O)/C=C\C(C#N)(C#N)/N=C/c1ccc(Br)cc1 = label 0
C/C=C(\CCOS(=O)(=O)c1ccc(C)cc1)[Si](C)(C)C = label 0
COc1cc(/C=C/c2ccc(OC)c(OC)c2OC)cc(OC)c1OC = label 0
COc1ccc([N+](=O)[O-])c2c(NCCCN(C)C)ccnc12 = label 0

## Task Lab log entry: CC1(O)CC(C(F)(F)F)(C(F)(F)F)OC1=O (configuration not stated) — outcome as called in the assay?
## Result label 0

## Task Lab log entry: CCCCCCCCCC[C@H](O)[C@H]1CC[C@H]([C@H]2CC[C@H]([C@H](O)CC[C@H](O)CCCCCCC[C@@H](O)CC3=C[C@H](C)OC3=O)O2)O1 — outcome as called in the assay?
## Result label 0

* * *

- Tested on: SNB-78
- assay-protocol: NCI tumour cell line growth inhibition, 48 h
Activity calls are given as the source filed them. Rule as the data show it: active = GI50 up to about 1.1 µM and inactive = higher.
Please state which outcome applies, choosing from 1 (yes) for active, 0 (no) for inactive

Example cases with answers are listed next.
COC(=O)c1cc2c(c(C(=O)OC)c1O)C(=O)C=CC2=O = 0 (no)
C#Cc1cccc(N2C(=O)c3c(c(-c4ccccc4)c(-c4ccc(Cc5ccc(-c6c(-c7ccccc7)c7c(c(-c8ccccc8)c6-c6ccccc6)C(=O)N(c6cccc(C#C)c6)C7=O)cc5)cc4)c(-c4ccccc4)c3-c3ccccc3)C2=O)c1 = 0 (no)
CC1=C(C(=O)CC(=O)C(=O)NC2C3CC4CC(C3)CC2C4)Sc2ccccc2N1 (centres undefined) = 0 (no)
COC1OC2COC(C)(C)OC2C(OC(C)=O)C1NC(=O)N(CCCl)N=O (centres undefined) = 0 (no)
Cc1ccc([S+]([O-])C(C)C(Cl)c2ccccc2)cc1 (centres undefined) = 0 (no)
COc1ccc(C2CC(c3cc(C)ccc3O)=NC(N)=N2)cc1 (centres undefined) = 0 (no)
CC(C)n1c2c([n+](C)c1/C=C/c1ccccc1)C(=O)c1ccccc1C2=O = 1 (yes)
CCOC(OC1=C(C#N)CCCC1)C(C)[Se]c1ccccc1 (centres undefined) = 0 (no)

Consider the record given below.
## Task Lab log entry: S=C(N/N=C/c1ccco1)NC12CC3CC(CC(C3)C1)C2 — outcome as called in the assay?
## Result 0 (no)

Attribution: ChEMBL document CHEMBL1201862
